Target: human CYP 2C9 (Homo sapiens)
Sequence (P11712 whole entry): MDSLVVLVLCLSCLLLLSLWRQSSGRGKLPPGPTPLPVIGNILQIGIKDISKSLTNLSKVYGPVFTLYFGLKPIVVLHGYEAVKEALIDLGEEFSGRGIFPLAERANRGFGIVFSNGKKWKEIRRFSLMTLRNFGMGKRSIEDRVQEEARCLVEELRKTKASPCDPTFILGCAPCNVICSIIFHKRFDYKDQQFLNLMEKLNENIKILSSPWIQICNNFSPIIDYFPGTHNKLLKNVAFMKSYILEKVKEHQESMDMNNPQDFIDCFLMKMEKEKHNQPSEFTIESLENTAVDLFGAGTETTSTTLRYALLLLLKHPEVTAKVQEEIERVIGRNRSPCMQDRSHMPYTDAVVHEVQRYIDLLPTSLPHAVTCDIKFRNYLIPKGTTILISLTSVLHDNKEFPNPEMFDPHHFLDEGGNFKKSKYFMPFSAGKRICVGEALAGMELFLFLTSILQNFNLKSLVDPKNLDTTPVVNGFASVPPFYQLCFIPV
Experiment: CYP inhibition assay, CYP 2C9
Type: in vitro ADME
Conditions: human liver microsomes, substrate cocktail; read-out: IC50 CYP 2C9
measure: IC50

smiles.entry | IC50
Cc1nc(Nc2ncc(N3CCN(C)[C@H](C)C3)c(Nc3cc(C)n(C)n3)n2)cc(C2CC2)c1F | > 30 µM

IC50 of `Cc1nc(Nc2ncc(N3CCN[C@H](C)C3)c(Nc3cnn(C)n3)n2)cc(C2CC2)c1Cl` , assay on human CYP 2C9 (Homo sapiens), is > 30 µM

---

Experiment: Pharmacokinetic studies (IVPK/POPK) in male Wistar rats
Assay type: in vivo
Conditions: male, Wistar, blood; Rat, IV bolus; 0.5 mg/kg Examples 7 and 10, 2 mg/kg Example 13; read-out: Vss blood
measure: Vd (L/kg)
Give bare numbers, in L/kg.

smiles.entry | Vd (L/kg)
Cc1nc(Nc2ncc(N3CCN[C@H](C)C3)c(Nc3cnn(C)n3)n2)cc(C2CC2)c1Cl | 9.7

Next compound, Vd to be filled in.
For record `Cc1nc(Nc2ncc(N3CCN(C)[C@H](C)C3)c(Nc3cc(C)n(C)n3)n2)cc(C2CC2)c1F` the listed Vd is 7.9
